- EXPERIMENT NOTES: soluble on expression in E. coli; label from the status in PepcDB or PDB records
MEASURE: soluble on expression in E. coli

Answered examples (5):
QUERY SEQUENCE	RESULT
MEHHHHHHATNLRGVMAALLTPFDQQQALDKASLRRLVQFNIQQGIDGLYVGGSTGEAFVQSLSEREQVLEIVAEEAKGKIKLIAHVGCVSTAESQQLAASAKRYGFDAVSAVTPFYYPFSFEEHCDHYRAIIDSADGLPMVVYNIPALSGVKLTLDQINTLVTLPGVGALKQTSGDLYQMEQIRREHPDLVLYNGYDNIFASGLLAGADGGIGSTYNIMGWRYQGIVKALKEGDIQTAQKLQTECNKVIDLLIKTGVFRGLKTVLHYMDVVSVPLCRKPFGPVDEKYLPELKALAQQLMQER	soluble
MALVPYEESAAIGLQKFHKPLATFSFANHTIQIRQDWRQLGVAAVVWDAAVVLSMYLEMGAVELRGCSAVELGAGTGLVGIVAALPGAQVTITDRKVALEFLKSNVEANLPPHIQPKAVVKELTWGQNLESFSPGEFDLILGADVIYLEDTFTDLLQTLGHLCSNNSVILLACRIRYERDSNFLTMLERQFTVSKVHYDPEKDVHIYKAQKRNQREDL	not soluble
MKSYMTQRLDEYRDGNEDKGRLLVSCPDQPGIVSAVSAFLFEHGANIIESNQYTTDPEGGRFFLRIEFDCAGIREKKSSLQAAFASVAEKFDMTWSLTLASELKRVAIFVSKNLHCLHELIWEWQTGNLMAEIAVVISNHEEARELVERLNIPFHYMKANKDIRAEVEKKQLELLEQYDVDVIVLARYMQILTPDFVSAHPNRIINIHHSFLPAFIGANPYKRAYERGVKLIGATSHYVTNDLDEGPIIEQDIKRVDHRDNAETLKNIGRTIERSVLARAVKWHLEDRVIVHENK	not soluble
MTKPAPTPLYNEFTFFLKKYFSYKVQKISLNAGFTCPNRDGTKGLGGCTYCNNQTFNPEYCKTEKSVTRQLEEGKQFFAHKYPDMKYLAYFQAYTNTYAELEGLKGKYEEALSVDGVVGLVIGTRPDCMPDPLLRYLEELNKHTFLLVEYGIETTRDVTLKRINRGHTYADTVETVNRTAACGILTGGHVILGLPGETHDEIIAQAAELSRLPLTTLKMHQLQLIRGTKMAREFECRPEDFHLFSVDEYIDLVIDYVEHLRPDLILERFVSQSPKELLIAPDWGLKNYEFTARVQKRMKERGAYQGKAYLV	not soluble
KVNMDLRANLKQVKKEDTEKEKDLRDVGDWRKNIEEKSGMEGRKKMFEAGES	soluble

IN: For MSLEARVLTGAALEARLDEVARLRIAVFRDWPYLYEGSMDYERSYLSTYRTSPGAILVGAFDGDRLVGASTGTPMEDHAEDFAAAFARTGLPLDEIFYCAESVLLPDYRGHGMGHRFFDLREAHARALGRRHSAFCSVIRPEDHPLRPAAARSNEPFWRKRGYAPLPGVVAHYGWTDVGEERETQKPLQFWIRDL , what is its reported soluble on expression in E. coli?
OUT: not soluble

IN: Entry MAHHHHHHMDSGTKREFGRNVTNVDDFKGAKLTPSKIHHQKFEGSDKRHGVRLADEGKWCIHKRSRVEPVAAGPSRERSVEETKSTTTCCSLPLPSQETNLCSIRGDSNTCSSDDSSIERYFDESCEAIEAPTAPAPRPPSPTWNNALRTVSGTAAAVLQDLKNAASLQTDQSSSSEVLPSPPVIPLIL : reported soluble on expression in E. coli = ?
OUT: not soluble

IN: Please report the recorded soluble on expression in E. coli for MGSDKIHHHHHHMSKSEQISHMTDVMAKFVGYTGKVLPDDVTAKLEDLHKKETSKLADVIFTTMIENQRLAKELDRPSCQDTGVIQFLVECGTNFPLIGELEALLREAVIKATVDSPLRHNSVETFDEYNTGKNVGKGTPTVFWEIVPNSDQCSIYTYMAGGGCSLPGKAMVLMPGAGYEGVTRFVLDVMTSYGLNACPPLLVGVGVATSVETAALLSKKALMRPIGSHNENERAASLEKMLEDGINKIGLGPQGMSGNTSVMGVNIENTARHPSTIGVAVNVGCWSHRKGHIVFDAALNYTITSHSGVNF .
OUT: not soluble
